test system: EBC-1; experiment: relative viability (nuclei count vs DMSO), 5 days (fraction); higher = more cells survive; details: first compound 0.1581 µM
Below is a list of entries, each paired with its recorded relative viability value.

# annotated cases, reported relative viability shown
>  <MOLECULE>
COc1cc2nccc(Oc3ccc(NC(=O)Nc4cc(C)on4)c(Cl)c3)c2cc1OC [Tivozanib] + O=C(c1cc(Cc2n[nH]c(=O)c3ccccc23)ccc1F)N1CCN(C(=O)C2CC2)CC1 [Olaparib] (partner 8 µM)

>  <relative viability>
0.777

$$$$
>  <MOLECULE>
COc1cc2nccc(Oc3ccc(NC(=O)Nc4cc(C)on4)c(Cl)c3)c2cc1OC [Tivozanib] + CS(=O)(=O)N1CCN(Cc2cc3nc(-c4cccc5[nH]ncc45)nc(N4CCOCC4)c3s2)CC1 [Pictilisib] (partner 1 µM)

>  <relative viability>
0.25

$$$$
>  <MOLECULE>
Nc1ccn([C@@H]2O[C@H](CO)[C@@H](O)[C@@H]2O)c(=O)n1 [Cytarabine] + O=C(c1cc(Cc2n[nH]c(=O)c3ccccc23)ccc1F)N1CCN(C(=O)C2CC2)CC1 [Olaparib] (partner 8 µM)

>  <relative viability>
0.375

$$$$

Lab note: measured relative viability of COc1cc2nccc(Oc3ccc(NC(=O)Nc4cc(C)on4)c(Cl)c3)c2cc1OC [Tivozanib] + Cc1nc(NC(=O)N2CCC[C@H]2C(N)=O)sc1-c1ccnc(C(C)(C)C(F)(F)F)c1 [Alpelisib] (partner 2 µM) was 0.59

----------
tested on: NCI-H2023; test: relative viability (nuclei count vs DMSO), 5 days (fraction); higher = more cells survive; conditions: first compound 15.81 µM
Below is a list of entries, each paired with its recorded relative viability value.
The response must contain the number and no unit.

>  <COMPOUND>
O=C(O)CCCCC(CCSCc1ccccc1)SCc1ccccc1 (configuration not stated) [CPI-613] + N=C(N)NC(=N)NCCc1ccccc1 [Phenformin] (partner 250 µM)

>  <relative viability>
0.37

$$$$
>  <COMPOUND>
O=C(O)CCCCC(CCSCc1ccccc1)SCc1ccccc1 (configuration not stated) [CPI-613] + C[C@@H](Oc1cc(-c2cnn(C3CCNCC3)c2)cnc1N)c1c(Cl)ccc(F)c1Cl [Crizotinib] (partner 1 µM)

>  <relative viability>
0.605

$$$$
>  <COMPOUND>
O=C(O)CCCCC(CCSCc1ccccc1)SCc1ccccc1 (configuration not stated) [CPI-613] + CCNC(=O)c1noc(-c2cc(C(C)C)c(O)cc2O)c1-c1ccc(CN2CCOCC2)cc1 [Luminespib] (partner 0.01 µM)

>  <relative viability>
0.692

$$$$
>  <COMPOUND>
O=C(O)CCCCC(CCSCc1ccccc1)SCc1ccccc1 (configuration not stated) [CPI-613] + O=C(CCCCCCC(=O)Nc1ccccc1)NO [Vorinostat] (partner 1 µM)

>  <relative viability>
0.475

$$$$
>  <COMPOUND>
O=C(O)CCCCC(CCSCc1ccccc1)SCc1ccccc1 (configuration not stated) [CPI-613] + COc1cc2c(Oc3ccc(NC(=O)C4(C(=O)Nc5ccc(F)cc5)CC4)cc3F)ccnc2cc1OCCCN1CCOCC1 [Foretinib] (partner 0.25 µM)

>  <relative viability>
0.719

$$$$

Lab note: measured relative viability of O=C(O)CCCCC(CCSCc1ccccc1)SCc1ccccc1 (configuration not stated) [CPI-613] + CC(C)C[C@H](NC(=O)[C@H](Cc1ccccc1)NC(=O)c1cnccn1)B(O)O [Bortezomib] (partner 0.002 µM) was 0.947

Lab note: measured relative viability of O=C(O)CCCCC(CCSCc1ccccc1)SCc1ccccc1 (configuration not stated) [CPI-613] + O=C(c1cc(Cc2n[nH]c(=O)c3ccccc23)ccc1F)N1CCN(C(=O)C2CC2)CC1 [Olaparib] (partner 8 µM) was 0.425

----------
test system: PC-14; test: relative viability (nuclei count vs DMSO), 5 days (fraction); higher = more cells survive; settings: first compound 0.4 µM
Below is a list of entries, each paired with its recorded relative viability value.
The response must contain the number and no unit.

>  <COMPOUND>
Cc1sc2c(c1C)C(c1ccc(Cl)cc1)=N[C@@H](CC(=O)OC(C)(C)C)c1nnc(C)n1-2 [JQ1] + Nc1ncn([C@H]2C[C@H](O)[C@@H](CO)O2)c(=O)n1 [Decitabine] (partner 2 µM)

>  <relative viability>
0.185

$$$$

Assay PC-14, sample Cc1sc2c(c1C)C(c1ccc(Cl)cc1)=N[C@@H](CC(=O)OC(C)(C)C)c1nnc(C)n1-2 [JQ1] + CS(=O)(=O)N1CCN(Cc2cc3nc(-c4cccc5[nH]ncc45)nc(N4CCOCC4)c3s2)CC1 [Pictilisib] (partner 1 µM) , relative viability read: 0.445

----------
Below is a list of entries, each paired with its recorded relative viability value.
system: RERF-LC-KJ; experiment: relative viability (nuclei count vs DMSO), 5 days (fraction); higher = more cells survive; settings: first compound 2.53 µM
The response must contain the number and no unit.

>  <COMPOUND>
Cc1cnc(-c2cnc(NCCNc3ccc(C#N)cn3)nc2-c2ccc(Cl)cc2Cl)[nH]1 + CC(=O)c1c(C)c2cnc(Nc3ccc(N4CCNCC4)cn3)nc2n(C2CCCC2)c1=O [Palbociclib] (partner 0.5 µM)

>  <SYSTEM_TESTED>
RERF-LC-KJ

>  <REPORTED_MEASUREMENT>
0.956

$$$$

Turning now to a further compound:
Lab note: measured relative viability of O=c1[nH]c2ccccc2n1C1CCN(CCCC(c2ccc(F)cc2)c2ccc(F)cc2)CC1 [Pimozide] + C[C@]1(O)C[C@@H](c2nc(-c3ccc4ccc(-c5ccccc5)nc4c3)c3c(N)nccn32)C1 [Linsitinib] (partner 1 µM) was 0.842

----------
system: NCI-H1666; test: relative viability (nuclei count vs DMSO), 5 days (fraction); higher = more cells survive; conditions: first compound 0.002 µM
PARAMETER: relative viability
The response must contain the number and no unit.

>  <COMPOUND>
CC(=O)O[C@@]12CO[C@@H]1C[C@H](O)[C@@]1(C)C(=O)[C@H](O)C3=C(C)[C@@H](OC(=O)[C@H](O)[C@@H](NC(=O)OC(C)(C)C)c4ccccc4)C[C@@](O)([C@@H](OC(=O)c4ccccc4)[C@H]21)C3(C)C [Docetaxel] + CC(=O)c1c(C)c2cnc(Nc3ccc(N4CCNCC4)cn3)nc2n(C2CCCC2)c1=O [Palbociclib] (partner 0.5 µM)

>  <SYSTEM_TESTED>
NCI-H1666

>  <REPORTED_MEASUREMENT>
0.795

$$$$
>  <COMPOUND>
CC(=O)O[C@@]12CO[C@@H]1C[C@H](O)[C@@]1(C)C(=O)[C@H](O)C3=C(C)[C@@H](OC(=O)[C@H](O)[C@@H](NC(=O)OC(C)(C)C)c4ccccc4)C[C@@](O)([C@@H](OC(=O)c4ccccc4)[C@H]21)C3(C)C [Docetaxel] + CCNC(=O)c1noc(-c2cc(C(C)C)c(O)cc2O)c1-c1ccc(CN2CCOCC2)cc1 [Luminespib] (partner 0.01 µM)

>  <SYSTEM_TESTED>
NCI-H1666

>  <REPORTED_MEASUREMENT>
0.623

$$$$

Turning now to a further compound:
Lab note: measured relative viability of CC(=O)O[C@@]12CO[C@@H]1C[C@H](O)[C@@]1(C)C(=O)[C@H](O)C3=C(C)[C@@H](OC(=O)[C@H](O)[C@@H](NC(=O)OC(C)(C)C)c4ccccc4)C[C@@](O)([C@@H](OC(=O)c4ccccc4)[C@H]21)C3(C)C [Docetaxel] + C[C@]1(O)C[C@@H](c2nc(-c3ccc4ccc(-c5ccccc5)nc4c3)c3c(N)nccn32)C1 [Linsitinib] (partner 1 µM) was 0.383

----------
test system: HCC-15; assay: relative viability (nuclei count vs DMSO), 5 days (fraction); higher = more cells survive; details: first compound 4 µM
Below is a list of entries, each paired with its recorded relative viability value.
The response must contain the number and no unit.

# annotated cases, reported relative viability shown
>  <COMPOUND>
Cc1sc2c(c1C)C(c1ccc(Cl)cc1)=N[C@@H](CC(=O)OC(C)(C)C)c1nnc(C)n1-2 [JQ1] + CC(=O)c1c(C)c2cnc(Nc3ccc(N4CCNCC4)cn3)nc2n(C2CCCC2)c1=O [Palbociclib] (partner 0.5 µM)

>  <REPORTED_MEASUREMENT>
0.395

$$$$
>  <COMPOUND>
Cc1sc2c(c1C)C(c1ccc(Cl)cc1)=N[C@@H](CC(=O)OC(C)(C)C)c1nnc(C)n1-2 [JQ1] + NC(=O)Nc1cc(-c2cccc(F)c2)sc1C(=O)N[C@H]1CCCNC1 [AZD7762] (partner 0.2 µM)

>  <REPORTED_MEASUREMENT>
0.742

$$$$
>  <COMPOUND>
Cc1sc2c(c1C)C(c1ccc(Cl)cc1)=N[C@@H](CC(=O)OC(C)(C)C)c1nnc(C)n1-2 [JQ1] + O=C(CCCCCCC(=O)Nc1ccccc1)NO [Vorinostat] (partner 1 µM)

>  <REPORTED_MEASUREMENT>
0.271

$$$$
>  <COMPOUND>
Cc1sc2c(c1C)C(c1ccc(Cl)cc1)=N[C@@H](CC(=O)OC(C)(C)C)c1nnc(C)n1-2 [JQ1] + Cc1nc(Nc2ncc(C(=O)Nc3c(C)cccc3Cl)s2)cc(N2CCN(CCO)CC2)n1 [Dasatinib] (partner 0.075 µM)

>  <REPORTED_MEASUREMENT>
0.227

$$$$
>  <COMPOUND>
Cc1sc2c(c1C)C(c1ccc(Cl)cc1)=N[C@@H](CC(=O)OC(C)(C)C)c1nnc(C)n1-2 [JQ1] + CC1(C)CCC(c2ccc(Cl)cc2)=C(CN2CCN(c3ccc(C(=O)NS(=O)(=O)c4ccc(N[C@H](CCN5CCOCC5)CSc5ccccc5)c(S(=O)(=O)C(F)(F)F)c4)cc3)CC2)C1 [Navitoclax] (partner 0.5 µM)

>  <REPORTED_MEASUREMENT>
0.299

$$$$

Turning now to a further compound:
Lab note: measured relative viability of Cc1sc2c(c1C)C(c1ccc(Cl)cc1)=N[C@@H](CC(=O)OC(C)(C)C)c1nnc(C)n1-2 [JQ1] + CS(=O)(=O)N1CCN(Cc2cc3nc(-c4cccc5[nH]ncc45)nc(N4CCOCC4)c3s2)CC1 [Pictilisib] (partner 1 µM) was 0.343
